target under test: Plasmodium falciparum 1-deoxy-D-xylulose 5-phosphate reductoisomerase (PfDxr) (Plasmodium falciparum, UniProt Q8IKG4)
Sequence (Q8IKG4 73-488): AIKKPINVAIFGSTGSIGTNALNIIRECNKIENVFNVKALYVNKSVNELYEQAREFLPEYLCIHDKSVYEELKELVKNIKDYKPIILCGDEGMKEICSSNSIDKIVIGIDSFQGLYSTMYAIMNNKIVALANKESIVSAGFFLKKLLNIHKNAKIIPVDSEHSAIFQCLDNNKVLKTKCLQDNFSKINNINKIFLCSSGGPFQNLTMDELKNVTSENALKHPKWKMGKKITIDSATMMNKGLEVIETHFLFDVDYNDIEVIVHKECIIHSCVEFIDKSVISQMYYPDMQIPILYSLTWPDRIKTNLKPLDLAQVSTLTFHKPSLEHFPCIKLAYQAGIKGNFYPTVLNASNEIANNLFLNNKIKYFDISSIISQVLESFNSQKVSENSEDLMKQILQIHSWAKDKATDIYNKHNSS
assay info: inhibition of purified recombinant PfDxr, NADPH consumption assay
Format: biochemical
reported metric: pKi
By convention, pKi is the negative base-10 log of a molar concentration.

// query Write down pKi measured for item CCC(=O)N(O)CCCP(=O)(O)O [FR-900098P]
// result 9.04
